- procedure.summary: Amyloid formation monitored by time-dependent far-UV ECD spectroscopy
- Type: physicochemical
- measurement.setup: 50% MeOH:50% H2O (ε = 51.347), 37 °C, stirred 500–600 rpm, ECD
No end group written: not given here.
measure: amyloid formation in 50% MeOH (in words)

substance	measure	result
LYIQNL [LYIQNL]	amyloid formation in 50% MeOH (in words)	form amyloid
LYIQWL [LYIQWL]	amyloid formation in 50% MeOH (in words)	form amyloid

====

- procedure.summary: Amyloid formation monitored by time-dependent far-UV ECD spectroscopy
- Format: physicochemical
- measurement.setup: 10% EtOH:90% H2O (ε = 68.742), 37 °C, stirred 500–600 rpm, ECD
No end group written: not given here.

substance	amyloid formation in 10% EtOH (in words)
LYIQWL [LYIQWL]	form amyloid
LYIQNL [LYIQNL]	form amyloid
